Listed binders paired with reported interaction score
Molecular target: T1, 4H3595-AA
T1 chain: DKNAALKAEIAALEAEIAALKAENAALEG
Assay: two-hybrid library CCmax;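 also: natural log of median RNA to DNA barcode read ratio; higher means stronger binding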
Settings: mean of both orientations
Reported Endpoint: interaction score

binder="DENAALEAENAALKAKIAALKAEIAALEG [4H1257-AA]" assay_result=0.807
binder="DKIAALKAENAALEAEIAALKAENAALEG [4H2699-AA]" assay_result=-1.96
binder="DKIAALKAENAALEAKIAALEAKNAALKG [4H2728-AA]" assay_result=-1.57
binder="DKIAALKAKNAALKAKIAALKAEIAALEG [4H3049-AA]" assay_result=-1.01
